# Lookup of reported inhibition keyed by entry
assay protocol: inhibitors of Sendai virus-induced IRF3 signaling, primary screen, TLR/RLR signaling modifier project, cell-based, Sendai virus stimulus, luciferase, 10K MLSCN set (AID 602276);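 note: firefly luciferase from ISG56 promoter only with Renilla not read in this screen; 0% = Sendai virus plus DMSO and 100% = medium plus DMSO without virus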
measurement setup: HEK293 RL24 IRF3 luciferase reporter, at 10 µM, active compounds read high
quantity measured: inhibition (%)

1. O=c1ccc(S(=O)(=O)N2CCC(Cc3ccccc3)CC2)c[nH]1    11.4
2. CCC(C)(C(=O)NC1CCCCC1)N(Cc1ccco1)C(=O)c1ccc2c(c1)OCO2 (stereo not drawn)    21.1
3. c1ccc(CSc2nnc(-c3cccs3)n2Cc2ccco2)cc1    -8.26
4. CCOC(=O)C1CCCN(c2c(NCc3ccco3)c(=O)c2=O)C1 (stereo not drawn)    -5.89
5. CCOc1cc(C(=O)NCc2nnc(SCC(=O)OC)n2C)cc(OCC)c1OCC    10.7
6. Fc1ccccc1Cn1nnc2c(-n3ccnc3)ncnc21    -9.4
7. COC(=O)Nc1nnc(CCc2ccccc2)s1    12.3
8. Cc1ccc(-c2noc(CN3C(C)CCCC3C)n2)cc1 (stereo not drawn)    2.73
9. CC1(C)NC(=O)N(CN2C(=O)NC(C)(C)C2=O)C1=O    7.1
10. CCOC(=O)N1CCN(CC(=O)c2c(C)[nH]c3ccccc23)CC1    0.348
11. C=CCn1c(SCn2nnc3ccccc3c2=O)nnc1-c1ccc(Br)cc1    -1.43
12. OC(COc1ccc2ccccc2c1)CN1CCOCC1 (stereo not drawn)    3.23
13. O=c1c(-c2ccc(Br)cc2)coc2c(CN3CCOCC3)c(O)ccc12    2.64
